Assay: RAM signaling pathway blockade in yeast – S. cerevisiae, Pdr1DBD-CYC8 efflux-inhibited sensitized strain, primary screen (AID 1298);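 further: 0% = DMSO untreated cells without growth and 100% = 10 µM 1-NA-PP1 full growth; higher means more yeast growth rescued from 5-FOA killing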
Details: S. cerevisiae cbk1-as DSE1-URA3 strain, 5-FOA growth OD615, 2 d; at 50 µM; active compounds read high
Active and inactive are the calls of the source.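 How the source made its calls: active means RAM network inhibition above 8.4% in each of two replicates, 3 SD over the compound average; inconclusive means above 8.4% inhibition in only one replicate; inactive means 8.4% inhibition or less in each replicate.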
Recorded RAM network inhibition values for a group of compounds are listed next.

INSERT INTO assay_data (compound, measured) VALUES
  ('COCCCN(C(=O)Nc1ccc(C)c(C)c1)C(C)c1ccccn1 (stereo not drawn)', '5.96% (inactive)'),
  ('CCCC(=O)c1cc(F)c(N2CCN(CCC#N)CC2)cc1C', '3.23% (inactive)'),
  ('CCOC(=O)C1CCN(c2c(N3CCN(Cc4ccccc4)CC3)c(=O)c2=O)CC1', '6.15% (inactive)');

Look up RAM network inhibition of CC(c1ccccc1F)n1cc(C(=O)NCCc2ccco2)nn1 (stereo not drawn) and report it.
0.46% (inactive)

Look up RAM network inhibition of Cc1cccc(OCc2nnc(SCC(=O)Nc3ccc(C)c(C)c3)o2)c1 and report it.
1.73% (inactive)
